Target: monkey GPC3-His protein (monkey)
Assay: ELISA, monkey GPC3-His coated; antibody 0.004 nM
endpoint-name: OD450 nm
Output spec: single numeric token, no unit.

binder | endpoint-name | experimental-result
hAb005LH2L1b (antibody, human IgG1, V domains shown) VH: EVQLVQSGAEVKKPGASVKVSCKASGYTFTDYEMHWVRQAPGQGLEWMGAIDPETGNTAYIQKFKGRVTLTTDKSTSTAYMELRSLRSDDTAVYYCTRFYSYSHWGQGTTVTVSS VL: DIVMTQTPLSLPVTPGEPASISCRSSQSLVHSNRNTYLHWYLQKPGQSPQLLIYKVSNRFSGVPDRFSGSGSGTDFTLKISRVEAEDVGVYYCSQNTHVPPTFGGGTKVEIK | OD450 nm | 0.232

With those in mind, consider the next binder.
Task: Looking for the measured OD450 nm of hAb005LH2L1a (antibody, human IgG1, V domains shown) VH: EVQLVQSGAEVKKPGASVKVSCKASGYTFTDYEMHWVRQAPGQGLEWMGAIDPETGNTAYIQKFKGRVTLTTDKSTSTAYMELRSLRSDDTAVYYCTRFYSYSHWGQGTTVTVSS VL: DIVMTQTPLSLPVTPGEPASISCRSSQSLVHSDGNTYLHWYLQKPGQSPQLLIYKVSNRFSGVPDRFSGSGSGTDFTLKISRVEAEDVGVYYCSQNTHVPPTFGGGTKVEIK , can you help?
Output: 0.04

Ref: patent US20260116991A1
